Target: GRID2IP_2, A4D2P6
Sequence (A4D2P6 272-370): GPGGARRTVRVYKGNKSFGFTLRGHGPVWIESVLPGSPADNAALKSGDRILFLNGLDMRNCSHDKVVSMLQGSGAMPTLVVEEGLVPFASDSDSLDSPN
Experiment: holdup assay
Design: key: below the threshold = too weak to quantify, mostly under pKd 3.1 to 4
Conditions: plain residues with an end cap or a label only (N-terminal biotin on a linker: ttds)
Note to self: values exactly at 4 are Condition met. So pKd at or above 4 is Condition met, below is Condition not met.

>>> label_value("PRVKPQRSKV [PPP1R13L, Q8WUF5]")
"Condition met"
>>> label_value("PVRVCEETSL [OTULIN, Q96BN8]")
"Condition met"

Attention now turns to another entry.
Hi, just wondering whether QRQARSETLV [HPV59-E6, Q81964] shows pKd of 4 or higher.
Condition not met
